Data origin: patent US6737383B1

- Tested on: giant foxtail
- protocol_text: Test B pre/postemergence giant foxtail
- Format: in vivo, Setaria faberii
- measurement_setup: Preemergence, Rate 62 g/ha; scale of 0 to 10 where 0 is no effect and 10 is complete control
Consider the following compounds and their measured Plant response rating, Giant foxtail readings.
readout_name: Plant response rating, Giant foxtail

- CC(C)N(C(=O)n1oc(=O)n(COCc2ccccc2)c1=O)c1ccc(F)cc1F [Compound 520]: 9
- CC(C)N(C(=O)n1oc(=O)n(CCCC(F)(F)F)c1=O)c1ccc(F)cc1F [Compound 526]: 9
- CC(C)N(C(=O)n1oc(=O)n(CC(=O)C2CC2)c1=O)c1ccccc1 [Compound 489]: 9
- CC(C)N(C(=O)n1oc(=O)n(CO)c1=O)c1ccc(F)cc1 [Compound 470]: 0
- CC(=O)NCn1c(=O)on(C(=O)N(c2ccc(F)cc2)C(C)C)c1=O [Compound 473]: 2
- CC(C)N(C(=O)n1oc(=O)n(CCCl)c1=O)c1ccccc1 [Compound 469]: 9
- Cc1nc(C)c(C(C)n2c(=O)on(C(=O)N(c3ccccc3)C(C)C)c2=O)s1 (stereo not shown) [Compound 442]: 0

###

- Tested on: purple nutsedge
- protocol_text: Test B pre/postemergence purple nutsedge
- Type: in vivo, Cyperus rotundus
- measurement_setup: Preemergence, Rate 250 g/ha
readout_name: Nutsedge plant response rating (0 to 10 scale)

* CC(C)N(C(=O)n1oc(=O)n(C[Si](C)(C)C)c1=O)c1ccccc1 | 0
* CC(C)N(C(=O)n1oc(=O)n(CCCCF)c1=O)c1ccc(F)cc1F | 10
* C=CCCCn1c(=O)on(C(=O)N(c2ccc(Cl)cc2)C(C)C)c1=O | 0
* CC(C)N(C(=O)n1oc(=O)n(CCCC(F)(F)F)c1=O)c1ccc(F)cc1F | 0

###

- System: pigweed
- protocol_text: Test B pre/postemergence pigweed
- Format: in vivo, Amaranthus retroflexus
- measurement_setup: Preemergence, Rate 250 g/ha; scale of 0 to 10 where 0 is no effect and 10 is complete control
Consider the following compounds and their measured Redroot pigweed plant response rating readings.
readout_name: Redroot pigweed plant response rating

- Cc1ccc(N(C(=O)n2oc(=O)n(-c3ccc4ccccc4c3)c2=O)C(C)C)cc1: 0
- CC(C)C(C)n1c(=O)on(C(=O)N(c2ccccc2)C(C)C)c1=O (centres unmarked): 10
- CC(=O)Cn1c(=O)on(C(=O)N(c2ccc(F)cc2)C(C)C)c1=O: 10
- CC1CC1n1c(=O)on(C(=O)N(c2ccc(Cl)cc2)C(C)C)c1=O (centres unmarked): 10
- Cc1c(-n2c(=O)on(C(=O)N(c3ccccc3)C(C)C)c2=O)ccc2ccccc12: 0
- Cc1nnsc1Cn1c(=O)on(C(=O)N(c2ccccc2)C(C)C)c1=O: 0
- Cc1c(-n2c(=O)on(C(=O)N(c3ccc(Cl)cc3)C(C)C)c2=O)ccc2ccccc12: 0
- CCOC(=O)C(C)N(C(=O)n1oc(=O)n(-c2c(C)cccc2OC)c1=O)c1ccc(F)cc1 (centres unmarked): 0
- C=CCn1c(=O)on(C(=O)N(CC)C2CCCCC2)c1=O: 0
- C=CCn1c(=O)on(C(=O)N(c2ccc(Cl)cc2)C(C)C2CC2)c1=O (centres unmarked): 0
- Cc1nsc(Cl)c1Cn1c(=O)on(C(=O)N(c2ccccc2)C(C)C)c1=O: 0
